# ASSAYED TARGET: Beta-2 adrenergic receptor (Cavia porcellus, UniProt Q8K4Z4)
# Sequence (Q8K4Z4 whole entry): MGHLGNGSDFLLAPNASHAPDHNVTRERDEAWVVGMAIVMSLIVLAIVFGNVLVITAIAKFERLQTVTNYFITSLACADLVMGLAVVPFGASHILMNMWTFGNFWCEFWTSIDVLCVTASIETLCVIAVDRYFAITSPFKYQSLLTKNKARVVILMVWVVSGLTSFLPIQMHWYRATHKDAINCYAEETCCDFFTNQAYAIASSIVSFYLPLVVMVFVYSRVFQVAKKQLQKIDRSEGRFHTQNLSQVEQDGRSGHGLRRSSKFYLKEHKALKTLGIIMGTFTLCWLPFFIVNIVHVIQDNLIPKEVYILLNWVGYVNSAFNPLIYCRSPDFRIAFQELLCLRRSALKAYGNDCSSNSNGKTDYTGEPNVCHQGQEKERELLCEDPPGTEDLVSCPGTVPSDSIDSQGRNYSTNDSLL
OBSERVABLE: pEC50
By convention, pEC50 is the negative base-10 log of a molar concentration.

Input line: What pEC50 value was documented for this compound, CC(Cc1ccc(Oc2nonc2S(=O)(=O)c2ccccc2)cc1)NCC(O)c1cc(O)cc(O)c1 (stereo in doubt; 16b) ?
Output line: 7.41

###

# Beta-2 adrenergic receptor (Cavia porcellus): EC50 values follow
Note: state the figure and append the unit.

CC(Cc1ccc(OCc2nonc2C(N)=O)cc1)NCC(O)c1cc(O)cc(O)c1 (stereo in doubt; 35b): 170 nM
Cc1c(COc2ccc(CC(C)NCC(O)c3cc(O)cc(O)c3)cc2)no[n+]1[O-] (stereo in doubt; 36b): 1300 nM
CCOc1no[n+]([O-])c1S(=O)(=O)c1ccccc1: 2300 nM
CC(Cc1ccc(OCc2no[n+]([O-])c2C(N)=O)cc1)NCC(O)c1cc(O)cc(O)c1 (stereo in doubt; 34a): 110 nM
Cc1c(COc2ccc(CC(C)NCC(O)c3cc(O)cc(O)c3)cc2)no[n+]1[O-] (stereo in doubt; 36a): 220 nM

Input line: Which measured EC50 belongs to CC(Cc1ccc(OCc2no[n+]([O-])c2C(N)=O)cc1)NCC(O)c1cc(O)cc(O)c1 (racemic) , tested on Beta-2 adrenergic receptor (Cavia porcellus)?
Output line: 1000 nM

Input line: Give Beta-2 adrenergic receptor (Cavia porcellus) EC50 for CC(Cc1ccc(Oc2no[n+]([O-])c2S(=O)(=O)c2ccccc2)cc1)NCC(O)c1cc(O)cc(O)c1 (stereo in doubt; 15a)
Output line: 18 nM

Input line: Quick check: EC50 on Beta-2 adrenergic receptor (Cavia porcellus), item Cc1nonc1COc1ccc(CC(C)NCC(O)c2cc(O)cc(O)c2)cc1 (stereo in doubt; 37b) ?
Output line: 2200 nM

Input line: Record lookup: for Beta-2 adrenergic receptor (Cavia porcellus), what EC50 belongs to CC(Cc1ccc(Oc2no[n+]([O-])c2S(=O)(=O)c2ccccc2)cc1)NCC(O)c1cc(O)cc(O)c1 (stereo in doubt; 15b) ?
Output line: 250 nM

Input line: Can you look up EC50 on Beta-2 adrenergic receptor (Cavia porcellus) for "NC(=O)c1c(CO)no[n+]1[O-]" ?
Output line: 86000 nM

Input line: Entry CC(Cc1ccc(OCc2nonc2C(N)=O)cc1)NCC(O)c1cc(O)cc(O)c1 (stereo in doubt; 35a) , system Beta-2 adrenergic receptor (Cavia porcellus): what EC50 was measured?
Output line: 29 nM

Input line: Requested read-out EC50, target or system Beta-2 adrenergic receptor (Cavia porcellus), entry Cc1nonc1COc1ccc(CC(C)NCC(O)c2cc(O)cc(O)c2)cc1 (stereo in doubt; 37a)
Output line: 110 nM

Input line: Hi! What's the reported EC50 for CC(Cc1ccc(Oc2nonc2S(=O)(=O)c2ccccc2)cc1)NCC(O)c1cc(O)cc(O)c1 (stereo in doubt; 16a) on Beta-2 adrenergic receptor (Cavia porcellus)?
Output line: 39 nM

###

Collected EC50 values appear next to each entry.
# ASSAYED TARGET: Beta-2 adrenergic receptor (Rattus norvegicus, UniProt P10608)
# Sequence (P10608 whole entry): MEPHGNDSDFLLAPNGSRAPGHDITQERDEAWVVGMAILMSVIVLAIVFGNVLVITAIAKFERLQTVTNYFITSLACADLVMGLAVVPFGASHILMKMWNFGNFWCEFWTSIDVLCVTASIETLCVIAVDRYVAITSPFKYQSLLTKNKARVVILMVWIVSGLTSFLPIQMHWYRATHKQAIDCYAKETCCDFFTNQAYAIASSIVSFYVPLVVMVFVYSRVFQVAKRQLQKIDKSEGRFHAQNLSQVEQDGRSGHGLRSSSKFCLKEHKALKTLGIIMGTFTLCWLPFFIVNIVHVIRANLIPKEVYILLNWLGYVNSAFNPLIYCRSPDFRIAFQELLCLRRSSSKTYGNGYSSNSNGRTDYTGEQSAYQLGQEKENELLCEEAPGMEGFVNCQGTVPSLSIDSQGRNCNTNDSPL
# METHOD NOTES: Vasodilating activity against phenylephrine-induced contractions in rat thoracic aorta

Examples with their reported EC50 follow.
CC(Cc1ccc(Oc2no[n+]([O-])c2S(=O)(=O)c2ccccc2)cc1)NCC(O)c1cc(O)cc(O)c1 (stereo in doubt; 15b): 14 nM
CC(Cc1ccc(Oc2no[n+]([O-])c2S(=O)(=O)c2ccccc2)cc1)NCC(O)c1cc(O)cc(O)c1 (stereo in doubt; 15a): 14 nM
CCOc1no[n+]([O-])c1S(=O)(=O)c1ccccc1: 12 nM

Input line: Find the recorded EC50 belonging to CC(Cc1ccc(OCc2no[n+]([O-])c2C(N)=O)cc1)NCC(O)c1cc(O)cc(O)c1 (stereo in doubt; 34a) and report it.
Output line: 1200 nM

###

# ASSAYED TARGET: Beta-2 adrenergic receptor (Rattus norvegicus, UniProt P10608)
# METHOD NOTES: Vasodilating activity against phenylephrine-induced contractions in rat thoracic aorta
OBSERVABLE: pEC50
Friendly reminder that pEC50 comes from taking -log10 of the concentration in mol/L.

Previously resolved entries follow.
CC(Cc1ccc(OCc2no[n+]([O-])c2C(N)=O)cc1)NCC(O)c1cc(O)cc(O)c1 (racemic): 5.92
Cc1c(COc2ccc(CC(C)NCC(O)c3cc(O)cc(O)c3)cc2)no[n+]1[O-] (stereo in doubt; 36b): 4.70
NC(=O)c1c(CO)no[n+]1[O-]: 5.20

Input line: Reported pEC50 for Beta-2 adrenergic receptor (Rattus norvegicus, UniProt P10608), given Cc1c(COc2ccc(CC(C)NCC(O)c3cc(O)cc(O)c3)cc2)no[n+]1[O-] (stereo in doubt; 36a) ?
Output line: 4.74

###

Parameter EC50, tested on Beta-2 adrenergic receptor (Cavia porcellus, UniProt Q8K4Z4), listed per item.
API: value field is a number in nM; no unit string.

// solved cases for EC50 follow
CC(Cc1ccc(Oc2no[n+]([O-])c2S(=O)(=O)c2ccccc2)cc1)NCC(O)c1cc(O)cc(O)c1 (stereo in doubt; 15a): 17
Cc1c(COc2ccc(CC(C)NCC(O)c3cc(O)cc(O)c3)cc2)no[n+]1[O-] (stereo in doubt; 36a): 230

Input line: Request - read-out EC50 | tested on Beta-2 adrenergic receptor (Cavia porcellus, UniProt Q8K4Z4) | compound Cc1c(COc2ccc(CC(C)NCC(O)c3cc(O)cc(O)c3)cc2)no[n+]1[O-] (stereo in doubt; 36b)
Output line: 1200

Input line: EC50 of CC(Cc1ccc(OCc2no[n+]([O-])c2C(N)=O)cc1)NCC(O)c1cc(O)cc(O)c1 (stereo in doubt; 34a) on Beta-2 adrenergic receptor (Cavia porcellus, UniProt Q8K4Z4)?
Output line: 130

Input line: // lookup EC50 | system=Beta-2 adrenergic receptor (Cavia porcellus, UniProt Q8K4Z4) | key= CC(Cc1ccc(OCc2no[n+]([O-])c2C(N)=O)cc1)NCC(O)c1cc(O)cc(O)c1 (racemic)
Output line: 1100

Input line: Request body: readout EC50, system Beta-2 adrenergic receptor (Cavia porcellus, UniProt Q8K4Z4), query CC(Cc1ccc(Oc2no[n+]([O-])c2S(=O)(=O)c2ccccc2)cc1)NCC(O)c1cc(O)cc(O)c1 (stereo in doubt; 15b) . Return the value.
Output line: 440
